B1: EHEE_rd2_0191 (parent)
chain: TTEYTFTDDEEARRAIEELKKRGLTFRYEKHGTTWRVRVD

- Variants of: B1
- METHOD: folding stability dG (cDNA display proteolysis); higher = more stable
- TEST_CONDITIONS: PBS, room temperature
RECORDED_ENDPOINT: folding stability dG (kcal/mol)
One number for each entry, in kcal/mol.

Use the examples below as a reference point.
{"columns": ["SEQUENCE_CODE", "folding stability dG (kcal/mol)"],
 "data": [
  ["TTEYTFTDDEEARRAIEELKKRGLTFRYEKHGTTWRVYVD", 3.62],
  ["TTEYTFTDDEEARRAIEELSKRGLTFRYEKHGTTWRVRVD", 1.81],
  ["TTEYTFTDDEERRRAIEELKKRGLTFRYEKHGTTWRVRVD", -0.372],
  ["TTEYTFTDDEEARRAIEELKKRGLMFRYEKHGTTWRVRVD", 1.95],
  ["TTEYTFTDDEEARRAIEELKKRGLTFDYEKHGTTWRVRVD", 1.62]
]}

Parameter requested: folding stability dG. Apply to each item below.
1. TTEYTFTDDEEARRAIEELKMRGLTFRYEKHGTTWRVRVD
2. TTEYTFTDDEEARRAIEELKNRGLTFRYEKHGTTWRVRVD

Result:
1: 1.9; 2: 1.78

Parameter requested: folding stability dG. Apply to each item below.
1. TTEYTFTDDEEARRAIEELKARGLTFRYEKHGTTWRVRVD
2. TTEYTFTDDEEASRAIEELKKRGLTFRYEKHGTTWRVRVD
3. TTEYTFTDDEEARRAIEELKKRGLNFRYEKHGTTWRVRVD

Result:
2.12
1.55
2.12

Parameter requested: folding stability dG. Apply to each item below.
1. TTEYTFTDDEEARRAIEELKKRGLWFRYEKHGTTWRVRVD
2. TTQYTFTDDEEARRAIEELKKRGLTFRYEKHGTTWRVRVD
3. TTEYTFTDDEEARRAIEELKKRGLTFRYEKHGTTTRVRVD
4. TTEYTFTDDEWARRAIEELKKRGLTFRYEKHGTTWRVRVD
5. TTEYTFTDDEEARDAIEELKKRGLTFRYEKHGTTWRVRVD
6. TTEYTFTRDEEARRAIEELKKRGLTFRYEKHGTTWRVRVD
7. TGEYTFTDDEEARRAIEELKKRGLTFRYEKHGTTWRVRVD
8. TTEYTFTDDEEARRAIEELKKRGLTFSYEKHGTTWRVRVD

Result:
[2.28, 1.47, 1.49, 1.5, 1.45, 1.39, 1.42, 2.73]
